# System: Raf-1^gof intestinal tumors
# condition-details: screen of 480 ICCB compounds in vials; compounds fed to flies with one-day old Raf-1^gof tumors, assessed three days later; esg-Gal4 luciferase
readout: Log2 (fold) (luciferase activity, log2 of the fold difference relative to DMSO controls)

Answered examples (5):
{"compound": "CC(=O)c1c(O)c(C)c(O)c(Cc2c(O)c3c(c(C(=O)/C=C/c4ccccc4)c2O)OC(C)(C)C=C3)c1O", "result": "−0.865"}
{"compound": "Cc1[nH]c(=O)c(C#N)cc1-c1ccncc1", "result": "−0.615"}
{"compound": "C=C1O[C@@](CO)(n2cnc3c(N)ncnc32)[C@H](O)[C@@H]1O", "result": "−0.298"}
{"compound": "N#C/C(=C\\c1ccc(O)c(O)c1)C(=O)OC/C=C/c1ccccc1", "result": "−0.360"}
{"compound": "CC(=O)N[C@@H](CSC/C=C(\\C)CCC=C(C)C)C(=O)O", "result": "−0.508"}

What value of Log2 (fold) (luciferase activity, log2 of the fold difference relative to DMSO controls) on Raf-1^gof intestinal tumors does CCCC[C@@H](C)/C=C(C)/C=C(\C)C(=O)NC1=C[C@@](O)(/C=C/C=C/C=C/C(=O)NC2=C(O)CCC2=O)[C@@H]2O[C@@H]2C1=O have?
−0.233

What value of Log2 (fold) (luciferase activity, log2 of the fold difference relative to DMSO controls) on Raf-1^gof intestinal tumors does C[C@@H](N)[C@H]1CC[C@H](C(=O)Nc2ccncc2)CC1 have?
−0.380

What value of Log2 (fold) (luciferase activity, log2 of the fold difference relative to DMSO controls) on Raf-1^gof intestinal tumors does O=C(O)c1ccccc1Nc1ccccc1 have?
−0.355

What value of Log2 (fold) (luciferase activity, log2 of the fold difference relative to DMSO controls) on Raf-1^gof intestinal tumors does CC(COc1ccccc1)N(CCCl)Cc1ccccc1 (stereo not drawn) have?
−0.600

---

# System: Raf-1^gof intestinal tumors
# assay-comment: Luciferase screen of FDA-approved (NCI) drugs in 96-well plates, flies with Raf-1^gof intestinal tumors; on Avg (3 + 6): test concentration or dose not given here
# Type: in vivo, Drosophila
# condition-details: average of Day 3 and Day 6 fold
readout: Avg (3 + 6) (fold)
Numbers only; they are read as fold.

{"molecule": "Oc1ncnc2[nH]ncc12", "Avg (3 + 6) / fold": 1.997}
{"molecule": "Cc1nc(Nc2ncc(C(=O)Nc3c(C)cccc3Cl)s2)cc(N2CCN(CCO)CC2)n1", "Avg (3 + 6) / fold": 1.085}
{"molecule": "C[C@]12CC[C@@H]3c4ccc(O)cc4C[C@@H](CCCCCCCCC[S+]([O-])CCCC(F)(F)C(F)(F)F)[C@H]3[C@@H]1CC[C@@H]2O (stereo partly shown)", "Avg (3 + 6) / fold": 1.172}
{"molecule": "COc1cc([C@@H]2c3cc4c(cc3[C@@H](O[C@@H]3O[C@@H]5CO[C@@H](C)O[C@H]5[C@H](O)[C@H]3O)[C@H]3COC(=O)[C@H]23)OCO4)cc(OC)c1O [Etoposide]", "Avg (3 + 6) / fold": 0.817}
{"molecule": "O=c1[nH]cc(F)c(=O)[nH]1", "Avg (3 + 6) / fold": 0.770}
{"molecule": "CO[C@H]1C[C@@H]2CC[C@@H](C)[C@@](O)(O2)C(=O)C(=O)N2CCCC[C@H]2C(=O)O[C@H]([C@H](C)C[C@@H]2CC[C@@H](O)[C@H](OC)C2)CC(=O)[C@H](C)/C=C(\\C)[C@@H](O)[C@@H](OC)C(=O)[C@H](C)C[C@H](C)/C=C/C=C/C=C/1C", "Avg (3 + 6) / fold": 0.369}

What value of Avg (3 + 6) on Raf-1^gof intestinal tumors does O=P1(NCCCl)OCCCN1CCCl (stereo not shown) [Ifosfamide] have?
1.004

---

# Test system: Raf-1^gof intestinal tumors
# assay-comment: Luciferase screen of FDA-approved (NCI) drugs in 96-well plates, flies with Raf-1^gof intestinal tumors; on Avg (3 + 6): test concentration or dose not given here
# Type: in vivo, Drosophila
# condition-details: average of Day 3 and Day 6 fold
Counter-ions that a name gives are not always drawn.
Mark not satisfied for Avg (3 + 6) values under 0.8 fold, and satisfied for everything at or above.

{"compound": "N.N.[Cl][Pt][Cl] [Cisplatin]", "discrete-label": "satisfied"}

Is it the case that CC[C@]1(O)C[C@H]2CN(CCc3c([nH]c4ccccc34)[C@@](C(=O)OC)(c3cc4c(cc3OC)N(C=O)[C@H]3[C@@](O)(C(=O)OC)[C@H](OC(C)=O)[C@]5(CC)C=CCN6CC[C@]43[C@@H]65)C2)C1 [Vincristine sulfate] has Avg (3 + 6) reaching or exceeding 0.8 fold?
not satisfied

Is it the case that O=C(O)CCCc1ccc(N(CCCl)CCCl)cc1 [Chlorambucil] has Avg (3 + 6) reaching or exceeding 0.8 fold?
satisfied

---

# Tested on: Raf-1^gof intestinal tumors
# assay-comment: Luciferase screen of FDA-approved (NCI) drugs in 96-well plates, flies with Raf-1^gof intestinal tumors; on Avg (3 + 6): test concentration or dose not given here
# Format: in vivo, Drosophila
# condition-details: average of Day 3 and Day 6 fold
Quick reference: Avg (3 + 6) of the listed items.
Numbers only; they are read as fold.

{"compound": "CN(Cc1cnc2nc(N)nc(N)c2n1)c1ccc(C(=O)N[C@@H](CCC(=O)O)C(=O)O)cc1 [Methotrexate]", "u": "fold", "result": 0.094}

Alright, here's another compound for you.
Can you look up the measured Avg (3 + 6) of N.N.O=C([O-])C1(C(=O)[O-])CCC1.[Pt+2] [Carboplatin] for me?
1.159

---

# Test system: Raf-1^gof intestinal tumors
# condition-details: screen of 480 ICCB compounds in vials; compounds fed to flies with one-day old Raf-1^gof tumors, assessed three days later; esg-Gal4 luciferase
Mark no (0) for Log2 (fold) (luciferase activity, log2 of the fold difference relative to DMSO controls) values under -0.4, and yes (1) for everything at or above.

{"compound": "CCN1C[C@]2(COC)[C@H](O)C[C@H](OC)[C@@]34[C@@H]5C[C@@]6(O)[C@H](OC(=O)c7ccccc7)[C@@H]5[C@@](OC(C)=O)([C@@H]([C@H](OC)[C@H]23)[C@@H]14)[C@@H](O)[C@@H]6OC", "discrete-label": "yes (1)"}
{"compound": "O=C1CCc2c(ccc3ccccc23)O1", "discrete-label": "yes (1)"}
{"compound": "CN/C(=N\\c1ccc(C2=NNC(=O)CC2C)cc1)NC#N (stereo not drawn)", "discrete-label": "yes (1)"}
{"compound": "CC[C@H](C)C(=O)O[C@H]1C[C@@H](C)C=C2C=C[C@H](C)[C@H](CC[C@@H]3C[C@@H](O)CC(=O)O3)[C@H]21", "discrete-label": "no (0)"}
{"compound": "C1CCC[C@H]2CCCN3CC[C@@H](CCCCCC[C@@H]4CCCN5CC[C@@H](CC1)O[C@@H]45)O[C@@H]23", "discrete-label": "no (0)"}
{"compound": "O=C(NCC1CCCCN1)c1cc(OCC(F)(F)F)ccc1OCC(F)(F)F (stereo not drawn) [FLECAINIDE]", "discrete-label": "yes (1)"}
{"compound": "CC[C@@]1(O)C(=O)OCc2c1cc1n(c2=O)Cc2cc3cc(O)ccc3nc2-1 [10-hydroxycamptothecin, reference compound]", "discrete-label": "no (0)"}
{"compound": "C/C(O)=C(\\C#N)C(=O)Nc1cc(Br)ccc1Br", "discrete-label": "no (0)"}

Is it the case that Oc1ccc(-c2nc(-c3ccc(F)cc3)c(-c3ccncc3)[nH]2)cc1 has Log2 (fold) (luciferase activity, log2 of the fold difference relative to DMSO controls) reaching or exceeding -0.4?
yes (1)

Is it the case that CCCCCCCCCCCCCCCCCCOC[C@H](COP(=O)([O-])OCC[N+](C)(C)C)OC(C)=O has Log2 (fold) (luciferase activity, log2 of the fold difference relative to DMSO controls) reaching or exceeding -0.4?
no (0)

---

# Tested on: Raf-1^gof intestinal tumors
# assay-comment: Luciferase screen of FDA-approved (NCI) drugs in 96-well plates, flies with Raf-1^gof intestinal tumors
# Format: in vivo, Drosophila
# condition-details: in vivo
Structures can show the parent of a compound that is named as a salt.
readout: Day 6 Fold
Kindly format the answer as number then unit.

Answered examples (8):
{"compound": "CNC(=O)c1cc(Oc2ccc(NC(=O)Nc3ccc(Cl)c(C(F)(F)F)c3)cc2)ccn1 [Sorafenib]", "Day 6 Fold": "1.339 fold"}
{"compound": "S=P(N1CC1)(N1CC1)N1CC1 [Thiotepa]", "Day 6 Fold": "0.335 fold"}
{"compound": "Oc1ncc(N(CCCl)CCCl)c(O)n1 [Uracil mustard]", "Day 6 Fold": "0.773 fold"}
{"compound": "C#Cc1cccc(Nc2ncnc3cc(OCCOC)c(OCCOC)cc23)c1 [Erlotinib HCl]", "Day 6 Fold": "0.942 fold"}
{"compound": "Clc1ccc(C(c2ccccc2Cl)C(Cl)Cl)cc1 (stereo not drawn) [Mitotane]", "Day 6 Fold": "0.938 fold"}
{"compound": "O=P1(N(CCCl)CCCl)NCCCO1 (stereo not drawn) [Cyclophosphamide]", "Day 6 Fold": "0.732 fold"}
{"compound": "C1CN1c1nc(N2CC2)nc(N2CC2)n1 [Triethylenemelamine (TEM), Triethylenemelamine]", "Day 6 Fold": "0.253 fold"}
{"compound": "CCc1c2c(nc3ccc(OC(=O)N4CCC(N5CCCCC5)CC4)cc13)-c1cc3c(c(=O)n1C2)COC(=O)[C@]3(O)CC [Irinotecan HCl]", "Day 6 Fold": "0.541 fold"}

Alright, here's another compound for you.
Can you look up the measured Day 6 Fold of CN(N=O)C(=O)N[C@@H](C=O)[C@@H](O)[C@H](O)[C@H](O)CO [Streptozocin] for me?
0.856 fold
